I'd be grateful if you could share measured half-life for these entries.
# Assay: in vivo
# Design: species or system SD rats
# Measurement Parameters: male, SD, rat, po, 3 mg/kg
# Description: Instrumentation: SCIEX Triple Quad 6500+ triple quadrupole liquid chromatography-mass spectrometry system (LC-MS/MS), operating software is Analyst 1.7.2 (Applied Biosystems, USA); ExionLC liquid chromatography system; Microsoft Excel was used for data calculation and processing. Pharmacokinetic parameters were calculated using the statistical moment method with WinNonlin 8.2 software. Key kinetic parameters included Tmax, T1/2, Cmax, AUC0-24 h etc. […]
One number for each entry, in h.

[
  {
    "Compound": "CCOc1cncc(-c2ccc(NC(=O)C3(c4ccnc(NS(=O)(=O)C5CC5)n4)CCC(=CCNC(C)=O)CC3)nc2)n1 (centres unmarked) [Compound 22]",
    "half-life (h)": 1.64
  },
  {
    "Compound": "CCOc1cncc(-c2ccc(NC(=O)C3(c4cncc(NS(=O)(=O)C5CC5)n4)CCC(=C(F)F)CC3)nc2)n1 (centres unmarked) [Compound 68]",
    "half-life (h)": 1.83
  },
  {
    "Compound": "CCOc1cncc(-c2ccc(NC(=O)C3(c4ccnc(NS(=O)(=O)C5CC5)n4)CCC(=CC4COC4)CC3)nc2)n1 (centres unmarked) [Compound 36]",
    "half-life (h)": 2.8
  },
  {
    "Compound": "CCOc1cncc(-c2ccc(NC(=O)C3(c4ccnc(NS(=O)(=O)C5CC5)n4)CCC(=CC4CCOCC4)CC3)nc2)n1 (centres unmarked) [Compound 32]",
    "half-life (h)": 1.34
  },
  {
    "Compound": "CCOc1cncc(-c2ccc(NC(=O)C3(c4ccnc(NS(=O)(=O)C5CC5)n4)CCC(=CCC4COC4)CC3)nc2)n1 (centres unmarked) [Compound 63]",
    "half-life (h)": 3.03
  }
]

List reported half-life for each of these compounds:
1. CCOc1cncc(-c2ccc(NC(=O)C3(c4ccnc(NS(=O)(=O)C5CC5)n4)CCC(=CCN4CC(OC)C4)CC3)nc2)n1 (centres unmarked) [Compound 28]
2. CCOc1cncc(-c2ccc(NC(=O)C3(c4ccnc(NS(=O)(=O)C5CC5)n4)CCC(=CF)CC3)nc2)n1 (centres unmarked) [Compound 10]
3. CCOc1cncc(-c2ccc(NC(=O)C3(c4ccnc(NS(=O)(=O)C5CC5)n4)CCC(=CCO)CC3)nc2)n1 (centres unmarked) [Compound 5]
4. CCOc1cncc(-c2ccc(NC(=O)C3(c4ccnc(NS(=O)(=O)C5CC5)n4)CCC(=C(F)F)CC3)nc2)n1 (centres unmarked) [Compound 1]
5. CCOc1cncc(-c2ccc(NC(=O)C3(c4ccnc(NS(=O)(=O)C5CC5)n4)CCC(=CCC(C)(C)O)CC3)nc2)n1 (centres unmarked) [Compound 58]

Result:
1.8
4.95
1.73
4.98
2.53

Problem: Would you kindly share the measured half-life for C=CC(=O)N1CCC(C(=O)Nc2ccc(-c3cncc(OCC)n3)cn2)(c2ccnc(NS(=O)(=O)C3CC3)n2)CC1 [Compound 26] ?
Result: 1.84
